All figures here come from ChEMBL document CHEMBL3808287.

Target: Tyrosine-protein kinase receptor UFO (Homo sapiens, UniProt P30530)
Sequence (P30530 whole entry): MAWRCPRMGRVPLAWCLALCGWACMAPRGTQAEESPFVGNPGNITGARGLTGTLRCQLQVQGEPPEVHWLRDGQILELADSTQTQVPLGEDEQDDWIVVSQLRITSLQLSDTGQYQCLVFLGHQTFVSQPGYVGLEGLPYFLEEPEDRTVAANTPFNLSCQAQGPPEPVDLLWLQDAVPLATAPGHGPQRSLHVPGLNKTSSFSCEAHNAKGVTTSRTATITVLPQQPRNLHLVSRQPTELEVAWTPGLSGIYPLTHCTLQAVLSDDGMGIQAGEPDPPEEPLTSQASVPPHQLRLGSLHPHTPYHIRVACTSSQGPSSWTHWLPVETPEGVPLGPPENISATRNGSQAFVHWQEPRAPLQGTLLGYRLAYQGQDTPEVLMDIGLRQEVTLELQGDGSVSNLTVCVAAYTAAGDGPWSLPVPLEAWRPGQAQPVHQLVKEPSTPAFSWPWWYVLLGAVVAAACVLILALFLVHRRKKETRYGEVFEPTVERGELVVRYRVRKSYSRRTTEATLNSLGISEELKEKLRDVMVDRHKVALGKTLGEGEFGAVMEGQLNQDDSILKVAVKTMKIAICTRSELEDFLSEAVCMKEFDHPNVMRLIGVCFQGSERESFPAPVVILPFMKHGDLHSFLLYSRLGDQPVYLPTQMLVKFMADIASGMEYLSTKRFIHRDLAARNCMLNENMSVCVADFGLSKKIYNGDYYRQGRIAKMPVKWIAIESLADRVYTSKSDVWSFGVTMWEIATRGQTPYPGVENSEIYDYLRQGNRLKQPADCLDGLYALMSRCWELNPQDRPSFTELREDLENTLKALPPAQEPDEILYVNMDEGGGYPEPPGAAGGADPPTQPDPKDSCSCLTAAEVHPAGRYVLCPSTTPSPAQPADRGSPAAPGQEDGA
Experiment: Inhibition of human full length AXL after 4 hrs followed by stimulation with human recombinant Gas6 for 15 minutes by cell based assay
Assay Endpoint: IC50
Answer with the figure and its unit, nothing else.

// query Item Cc1ccc(C(=O)Nc2ccc(Oc3cc4cnn(C)c4cc3-c3cn[nH]c3)c(F)c2)c(=O)n1-c1ccc(F)cc1 [MERESTINIB] has what recorded IC50?
// result 2 nM

====

Molecular target: Tyrosine-protein kinase receptor UFO (Homo sapiens, UniProt P30530)
Experiment: Inhibition of human full length AXL by scintillation counting method in presence of 33P-gammaATP
Assay Endpoint: IC50 (nM)
Answer with a number only, understood to be in nM.

// query What measured IC50 is associated with Cc1ccc(C(=O)Nc2ccc(Oc3cc4cnn(C)c4cc3-c3cn[nH]c3)c(F)c2)c(=O)n1-c1ccc(F)cc1 on Tyrosine-protein kinase receptor UFO (Homo sapiens, UniProt P30530)?
// result 11

====

Biological target: Tyrosine-protein kinase receptor UFO (Homo sapiens, UniProt P30530)
Experiment: Inhibition of AXL in human GIST cells
Type: cell-based
Assay Endpoint: IC50

// query Dear colleague, I am looking for the recorded IC50 of the following compound: S=C(NCc1ccc2c(c1)OCO2)N1CCN(c2ncnc3c2oc2ccccc23)CC1
// result < 1 µM
